Quick list: solubility kinetic per entry.
# CONDITIONS: buffer; pH 7.4; 200.0 µM

| CHEMICAL SMILES | solubility kinetic |
| --- | --- |
| COc1cccc2cc(-c3ccnc(N)n3)oc12 | 2.6 µg/mL |
| CCN(CC)C(=O)CSc1nnc([C@@H](N)C(C)C)o1.Cl | > 48.4 µg/mL |
| Cc1oc(-c2cccc(Br)c2)[n+]([O-])c1C | > 40.2 µg/mL |
| Cc1cc(-c2ccccc2C(=O)Nc2ccccc2O)on1 | > 44.1 µg/mL |
| CC(C)c1cc(=O)[nH]c(SCC(=O)NC2CCCC2)n1 | > 44.3 µg/mL |
| c1ccc(CNc2nc(-c3ccccn3)nc3ccccc23)cc1 | 29.1 µg/mL |

* * *

# CONDITIONS: buffer; pH 7.4; 200.0 µM

| COMPOUND | UNIT DESCRIPTOR | READOUT RELATION | solubility kinetic |
| --- | --- | --- | --- |
| CCN(CC(=O)Nc1ccc(C(C)=O)cc1)CC(=O)Nc1ccc2c(c1)OCCO2.O=C(O)C(=O)O | µg/mL | > | 75.2 |
| O=C(COC(=O)c1cc(Cl)nc(Cl)c1)Nc1ccc(Cl)c(S(=O)(=O)N2CCOCC2)c1 | µg/mL | = | 31.7 |
| COc1ccccc1Oc1ccc2c(c1)C(=O)N(CC(=O)O)C2=O | µg/mL | > | 49.1 |
| CCCCCCNc1c([N+](=O)[O-])c(=O)sc2ccccc12 | µg/mL | = | 4.4 |
| CC1CC(C)(C)NC(=S)N1CCCC(=O)NCc1ccccc1 (stereo unspecified) | µg/mL | > | 50 |
| CCCC(C)NC(=O)CN1C(=O)c2cccc3cccc1c23 (stereo unspecified) | µg/mL | = | 8.3 |
| O=C(Cn1cnc2ccccc21)c1ccc(Br)cc1 | µg/mL | = | 40 |
| O=C(Cc1ccc([N+](=O)[O-])cc1)Nc1nccs1 | µg/mL | = | 4.8 |
| Cc1cc(=O)[nH]c(SC(C)C(=O)Nc2cccc3ccccc23)n1 (stereo unspecified) | µg/mL | = | 42.7 |
| Cc1ccc(OCC(=O)NCCCNC(=O)c2ccccn2)cc1C | µg/mL | = | 45.4 |
| C#CCOC(=O)CN1C(=O)c2cccc3cccc(c23)C1=O | µg/mL | < | 0.6 |

* * *

# CONDITIONS: buffer; pH 7.4; 200.0 µM
Each entry falls in a class defined on solubility kinetic; the bands are low end (below 7 µg/mL), middle (7 µg/mL to below 30 µg/mL), high end (30 µg/mL or more)

| MOLECULE | LABEL |
| --- | --- |
| CC(C)N1CCN(Cc2ccsc2)CC1CCO (centres undefined) | high end |
| COC(=O)c1ccc(CO/N=C/c2ccc(OC)cc2OC)cc1 | low end |
| O=C(/C=C/c1ccc(Cl)cc1)Nc1ccc(N2CCOCC2)cc1 | low end |
| Nc1ncc(-c2ccccc2)c(-c2ccc(OCc3ccccc3)cc2O)n1 | low end |
| Cc1ccc(C)c(-n2ccnc2SCC(N)=O)c1 | high end |
| O=C(COC(=O)C1CCC1)NC(=O)c1ccccc1 | high end |
| O=C1COc2ccccc2N1Cc1c(F)cccc1Cl | middle |
| COC(=O)c1scc(C)c1N1C(=O)c2ccccc2C1=O | low end |
| CCn1ccnc1CNC(=O)c1ccc2oc(C(C)C)nc2c1 | high end |
| COc1ccc(CCN(C)c2ncnc3sccc23)cc1OC | high end |
| O=C1OC(C(=O)Nc2ccccc2)Cc2ccccc21 (centres undefined) | middle |
| Cn1cccc1/C=N\NC(=O)c1cncc(Br)c1 | high end |
| O=C(O)/C=C/C(=O)NCCc1ccccc1 | high end |
| O=C(NN1CCOCC1)c1ccc(Cl)cc1Cl | high end |
| CCCCOc1ccc(C(=O)NNC(=O)c2cnccn2)cc1OC | high end |
| CCOC(=O)c1[nH]cnc1C(=O)Nc1ccccc1OC | middle |
| NS(=O)(=O)c1ccc(CNC(=S)NC(=O)c2ccco2)cc1 | high end |
| O=C(O)c1ccc2c(c1)C(=O)N(c1cc([N+](=O)[O-])ccn1)C2=O | high end |
| CCC(=O)Nc1ccc2c(c1)nc1n2CCN(C2CCCCC2)C1 | high end |
| O=c1[nH]c(=S)n(C2CC2)c(O)c1C=NCCc1ccccc1 | low end |
| CCOc1ccc(S(=O)(=O)/N=C(/Nc2ccc(C)c(S(=O)(=O)N3CCOCC3)c2)c2ccccc2)cc1 | middle |
| CCOC(=O)C1=CCN(Cc2ccccc2)CC1.Cl | high end |
| Cc1cccc(C)c1NC(=O)CCn1cnc2ccccc2c1=O | high end |
| Cc1cccc(NC(=O)C(=O)NCCc2c[nH]c3ccccc23)c1C | low end |
| Cc1ccc(S(=O)(=O)NC(=O)Nc2ccc(F)c(F)c2)cc1 | high end |
| CC(=O)Nc1ccc(OS(=O)(=O)c2ccccc2C)cc1 | high end |
| Cc1onc(-c2c(Cl)cccc2Cl)c1/C(N)=N/OC(=O)C1CC1 | high end |
| O=[N+]([O-])c1ccccc1S(=O)(=O)Nc1ccc2c(c1)OCCO2 | high end |
| O=C(COC(=O)c1cc(=O)[nH]c2ccccc12)c1ccccc1 | middle |
| O=C(Nc1nccs1)c1ccc(-c2ccc(F)cc2)o1 | low end |
| NC(=O)C1CCN(C(=O)c2ccccc2CCc2ccccc2)CC1 | high end |
| O=C1OC(Nc2nc(-c3ccc(F)cc3)cs2)c2ccccc21 (centres undefined) | low end |
| Cc1nc(NC(=O)c2ccncc2)sc1C(=O)N(C)C | high end |
| O=C(NCc1ccc(F)cc1F)c1cc(COc2c(F)cccc2F)on1 | low end |
| CCCCn1c(=O)c(C(C)=O)c(O)c2ccccc21 | middle |
| N#C/C(=C\c1ccccc1)C(=O)N1CCC(C(N)=O)CC1 | high end |
| Cc1cc(C)cc(C(=O)Nc2ccc(N3CCCC3)cc2)c1 | low end |
| O=C(c1ccccc1F)N1CCN(C(=O)C2CC2)CC1 | high end |
| Cc1cccc(C)c1NC(=O)c1ccc2c(c1)CCN2S(C)(=O)=O | middle |
| COc1ccc(Nc2nc3c(C)cccn3c(=O)c2C=O)cc1 | low end |
| CC(C)c1ccc(OCCCN2CCCC2)cc1 | middle |
| Cc1cccc(C(=O)NCC(=O)OCC(=O)NC2CCCCC2)c1 | high end |
| O=C(Cn1cnc2ccccc21)OCC(=O)N1CCCCC1 | high end |

* * *

Quick list: solubility kinetic per entry.
# CONDITIONS: buffer; pH 7.4; 200.0 µM

| COMPOUND | solubility kinetic |
| --- | --- |
| CSc1ncccc1C(=O)OCC(=O)NC1CCCC1 | > 44.2 µg/mL |
| Oc1[nH]c(=S)sc1C=C1N=c2ccccc2=N1 | > 39.2 µg/mL |
| O=C1CNC(=S)N1Cc1cccc(Cl)c1 | > 36.1 µg/mL |
| O=C(OCC(=O)N1CCOCC1)c1ccc2ccccc2c1O | 28.2 µg/mL |
| CCN(CC(=O)Nc1ccc(S(=O)(=O)N2CCCC2)cc1)CC(=O)Nc1ccccc1C(F)(F)F | 21.2 µg/mL |
| O=C(Nc1cc(S(=O)(=O)Nc2ccccc2Cl)ccc1O)c1ccc(F)cc1F | 3.3 µg/mL |
| C/C(N)=C(/C#N)C(=O)COC(=O)c1cc2c(s1)CCCC2 | 2.2 µg/mL |
| CC(=O)Nc1c(Cl)cnn(-c2ccccc2)c1=O | > 39.6 µg/mL |
| Cc1nc2ccccc2c2c1CC(C(C)(Cl)Br)O2 (configuration not stated) | 26.7 µg/mL |
| O=C(Cc1c(F)cccc1Cl)OCC(=O)c1ccc[nH]1 | 26.1 µg/mL |
| CCCNC(=O)c1ccccc1SCc1c(C)noc1C | > 45.7 µg/mL |
| Cc1ccc(S(=O)(=O)CC(=O)c2ccccc2[N+](=O)[O-])cc1 | 42.8 µg/mL |

* * *

Quick list: solubility kinetic per entry.
# CONDITIONS: buffer; pH 7.4; 200.0 µM

| CHEMICAL SMILES | solubility kinetic |
| --- | --- |
| c1ccc(-c2nnc(-c3ccccn3)c(-c3ccccn3)n2)nc1 | > 0.0468 mg/mL |
| CC(=O)N1CCN(c2ccc(NC(=O)c3ccc(F)cc3)cc2)CC1 | 0.0106 mg/mL |
| O=[N+]([O-])c1cc(Cl)ccc1NCCc1ccccn1 | 0.0287 mg/mL |
| CCc1cc(=O)[nH]c(SCC(=O)N2CCOCC2)n1 | > 0.0425 mg/mL |
| CCn1c(C)nc2cc(C#N)ccc21 | > 0.0278 mg/mL |
| CSc1nccn1C(=O)c1ccccc1[N+](=O)[O-] | > 0.0395 mg/mL |
